Entries and their remaining activity at 30 µM
Biological target: rat mGlu2 (Rattus norvegicus, UniProt P31421)
Construct: expressed in transfected cells
Sequence (P31421 19-872): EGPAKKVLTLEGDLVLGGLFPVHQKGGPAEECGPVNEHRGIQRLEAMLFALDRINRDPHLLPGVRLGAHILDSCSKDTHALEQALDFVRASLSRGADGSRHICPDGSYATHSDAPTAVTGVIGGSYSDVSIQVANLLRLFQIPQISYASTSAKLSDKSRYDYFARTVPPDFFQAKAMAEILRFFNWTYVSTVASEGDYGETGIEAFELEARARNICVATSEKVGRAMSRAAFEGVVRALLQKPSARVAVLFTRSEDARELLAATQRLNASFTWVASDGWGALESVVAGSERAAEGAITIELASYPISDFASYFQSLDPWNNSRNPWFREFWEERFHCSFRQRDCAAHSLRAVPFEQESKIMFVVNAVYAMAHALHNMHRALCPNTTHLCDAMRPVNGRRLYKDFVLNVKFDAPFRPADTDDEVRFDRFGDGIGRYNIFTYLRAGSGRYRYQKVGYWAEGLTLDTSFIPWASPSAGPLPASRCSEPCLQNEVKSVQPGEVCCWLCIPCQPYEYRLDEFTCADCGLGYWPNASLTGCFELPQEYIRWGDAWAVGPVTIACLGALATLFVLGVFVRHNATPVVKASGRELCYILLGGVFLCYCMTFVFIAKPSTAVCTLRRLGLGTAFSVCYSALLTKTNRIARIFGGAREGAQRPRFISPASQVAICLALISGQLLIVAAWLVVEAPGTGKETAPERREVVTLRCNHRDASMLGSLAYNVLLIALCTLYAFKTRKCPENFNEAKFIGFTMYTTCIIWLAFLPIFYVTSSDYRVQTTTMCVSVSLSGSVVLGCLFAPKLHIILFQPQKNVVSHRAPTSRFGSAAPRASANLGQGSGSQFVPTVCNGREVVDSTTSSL
Experiment: mGlu2 Ca2+ flux assay
Assay type: cell-based
Conditions: amplitude of response in the presence of 30 μM test compound as percentage of maximal response to glutamate; read-out: rat mGlu2 Glu max (%)
Description: Gα15 HEK293 cells stably expressing rat mGlu2 were plated in black-walled, clear-bottomed, poly-D-lysine coated 384-well plates in 20 μL of assay medium (DMEM containing 10% dialyzed FBS, 20 mM HEPES, and 1 mM sodium pyruvate) at a density of 12K cells/well. […] Ca^2+ flux was measured using the Functional Drug Screening System (FDSS7000, Hamamatsu, Japan). […] Calcium fluorescence measures were recorded as fold over basal fluorescence; raw data was then normalized to the maximal response to glutamate. […]
Write the value in % as a bare number.

Use the examples below as a reference point.
{"STRUCTURE": "Cc1cc(OCc2ccc3c(c2)c(=O)c(C(N)=O)cn3-c2ccc(F)cc2)ccn1", "UNIT NAME": "%", "remaining activity at 30 µM": 2.18}
{"STRUCTURE": "NC(=O)c1cn(-c2ccc(F)cc2)c2ccc(COc3ccc(C(F)(F)F)nc3)cc2c1=O", "UNIT NAME": "%", "remaining activity at 30 µM": 1.28}
{"STRUCTURE": "CN(Cc1cccnc1)c1ccc2c(c1)c(=O)c(C#N)cn2-c1ccc(F)cc1", "UNIT NAME": "%", "remaining activity at 30 µM": 3.44}

Moving on to another compound below.
Query: Look up remaining activity at 30 µM: CS(=O)(=O)C1CCN(Cc2ccc3c(c2)c(=O)c(C(N)=O)cn3-c2ccc(F)cc2)CC1
Reply: 1.29

###

Target: rat mGlu2 (Rattus norvegicus, UniProt P31421)
Construct: expressed in transfected cells
Assay: mGlu2 Ca2+ flux assay
Type: cell-based
Conditions: amplitude of response in the presence of 30 μM test compound as percentage of maximal response to glutamate; read-out: rat mGlu2 Glu max (%)
Procedure: Gα15 HEK293 cells stably expressing rat mGlu2 were plated in black-walled, clear-bottomed, poly-D-lysine coated 384-well plates in 20 μL of assay medium (DMEM containing 10% dialyzed FBS, 20 mM HEPES, and 1 mM sodium pyruvate) at a density of 12K cells/well. […] Ca^2+ flux was measured using the Functional Drug Screening System (FDSS7000, Hamamatsu, Japan). […] Calcium fluorescence measures were recorded as fold over basal fluorescence; raw data was then normalized to the maximal response to glutamate. […]
Labelling field: enter Yes if recorded remaining activity at 30 µM is less than 1%. Enter No if it equals or exceeds that cut-off.

{"COMPOUND": "CC1CN(Cc2cc(F)c3c(c2)c(=O)c(C(N)=O)cn3-c2ccc(F)cc2)CCO1 (stereo not drawn) [Compound 93]", "LABEL VALUE": "Yes"}

Query: hey, is remaining activity at 30 µM for NC(=O)c1cn(-c2ccc(F)cc2)c2ccc(NCCc3ccncc3)cc2c1=O [Compound 26] lower than 1% or not?
Reply: No

Query: hey, is remaining activity at 30 µM for NC(=O)c1cn(-c2ccc(F)cc2)c2ccc(CN3CCS(=O)(=O)CC3)cc2c1=O [Compound 84] lower than 1% or not?
Reply: No

Query: hey, is remaining activity at 30 µM for NC(=O)c1cn(-c2ccc(F)cc2)c2ccc(OCc3ccncc3)cc2c1=O [Compound 25] lower than 1% or not?
Reply: Yes

Query: hey, is remaining activity at 30 µM for CCN(Cc1cccnc1)c1ccc2c(c1)c(=O)c(C(N)=O)cn2-c1ccc(F)cc1 [Compound 42] lower than 1% or not?
Reply: No
